Tested system: FGFR3 (Homo sapiens)
Construct: purchased Upstate
Sequence (P22607 23-806): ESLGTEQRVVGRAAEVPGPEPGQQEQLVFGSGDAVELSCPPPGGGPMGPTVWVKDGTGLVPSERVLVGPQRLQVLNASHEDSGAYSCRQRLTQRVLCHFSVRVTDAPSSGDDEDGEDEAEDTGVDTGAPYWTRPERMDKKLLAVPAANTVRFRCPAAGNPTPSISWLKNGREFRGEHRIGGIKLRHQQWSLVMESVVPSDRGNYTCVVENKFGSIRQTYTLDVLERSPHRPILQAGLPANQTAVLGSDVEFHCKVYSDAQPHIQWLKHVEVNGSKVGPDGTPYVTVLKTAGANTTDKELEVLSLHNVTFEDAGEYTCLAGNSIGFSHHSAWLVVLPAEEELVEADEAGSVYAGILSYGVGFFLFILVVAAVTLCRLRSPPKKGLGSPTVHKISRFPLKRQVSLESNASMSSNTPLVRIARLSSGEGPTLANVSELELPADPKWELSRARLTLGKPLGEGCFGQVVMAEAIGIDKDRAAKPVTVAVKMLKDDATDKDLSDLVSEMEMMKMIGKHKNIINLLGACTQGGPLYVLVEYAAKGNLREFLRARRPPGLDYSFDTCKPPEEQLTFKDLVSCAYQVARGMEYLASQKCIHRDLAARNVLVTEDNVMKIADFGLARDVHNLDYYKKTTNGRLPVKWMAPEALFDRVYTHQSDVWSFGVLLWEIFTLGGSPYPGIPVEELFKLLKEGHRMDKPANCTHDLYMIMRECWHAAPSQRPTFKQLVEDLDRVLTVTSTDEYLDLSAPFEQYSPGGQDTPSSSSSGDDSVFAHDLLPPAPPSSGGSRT
Assay method text: FGFR3 in vitro kinase inhibitory activity assay
Format: biochemical
Condition context: read-out: FGFR3 IC50(μM) or % I
Description: FGFR3, VEGFR2 and PDGFR in vitro Kinase Inhibitory Activity Assays Enzymes (from Upstate), prepared at 2× final concentration, were incubated with test compounds, biotinylated Flt3 substrate (biotin-VASSDNEYFYVDF) (Cell Signalling Technology Inc.) and ATP in the appropriate assay buffer (Table 1). […] The plate was then read on a Packard Fusion plate reader or a BMG Pherastar both in TRF mode.
Measured log10 IC50 values are reported for all entries that follow.
Measured attribute: log10 IC50 (log10 of the value in µM)

CC(C)Oc1cc(NC(=O)NCC(F)(F)F)cc(-c2cnc3cc(-c4ncc(F)c(N)n4)ccn23)c1	-2.14
Cc1cn(-c2ccn3c(-c4cc(NC(=O)NCC(F)(F)F)cc(OC(C)C)c4)cnc3c2)cn1	-2.80
CCOc1cc(NC(=O)NCC(F)(F)F)cc(-c2cnc3cc(-c4ccnc(C(F)(F)F)n4)ccn23)c1	-1.57
CC(C)Oc1cc(NC(=O)NCC(F)(F)F)cc(-c2cnc3cc(-c4nccc(C(C)(C)CO)n4)ccn23)c1	-1.38
CC(C)Oc1cc(NC(=O)NCC(F)(F)F)cc(-c2cnc3cc(-c4nnco4)ccn23)c1	-1.39
CC(C)Oc1cc(NC(=O)NCC(F)(F)F)cc(-c2cnc3cc(-c4ccnc(C(F)(F)F)n4)ccn23)c1	-1.47
CC(C)Oc1cc(NC(=O)NCC(F)(F)F)cc(-c2cnc3cc(-c4ncccn4)ccn23)c1	-1.84

###

Measured IC50 values are reported for all entries that follow.
Tested system: FGFR3 (Homo sapiens)
Construct: purchased Upstate
Assay method text: FGFR3 in vitro kinase inhibitory activity assay
Type: biochemical
Condition context: read-out: FGFR3 IC50(μM) or % I
Measured attribute: IC50 (µM)

CC(C)Oc1cc(NC(=O)NCC(F)(F)F)cc(-c2cnc3cc(OCCCO)ccn23)c1 [Compound F-18]	0.02
Cc1nc(-c2ccn3c(-c4cc(NC(=O)NCC(F)(F)F)cc(OC(C)C)c4)cnc3c2)ccc1F [Compound F-3]	0.0087
CC(C)Oc1cc(NC(=O)NCC(F)(F)F)cc(-c2cnc3cc(N4CCC(F)(F)CC4)ccn23)c1 [Compound F-13]	0.061
CC(C)Oc1cc(NC(=O)NCC(F)(F)F)cc(-c2cnc3cc(C(=O)C4CC4)ccn23)c1 [Compound F-6]	0.0012
CC(C)Oc1cc(NC(=O)NCC(F)(F)F)cc(-c2cnc3cc(OCCO)ccn23)c1 [Compound F-17]	0.017
CCNC(=O)Nc1cc(OC(C)C)cc(-c2cnc3cc(-c4nncs4)ccn23)c1 [Compound F-10]	0.013
CCOc1cc(NC(=O)NCC(F)(F)F)cc(-c2cnc3cc(-c4nnc(C)o4)ccn23)c1 [Compound F-15]	0.025
CCNC(=O)Nc1cc(OC(C)C)cc(-c2cnc3cc(-c4nnc(C)s4)ccn23)c1 [Compound F-23]	0.004
Cc1nnc(-c2ccn3c(-c4cc(NC(=O)NCC(F)(F)F)cc(OC(C)C)c4)cnc3c2)s1.Cl [Compound F-20]	0.00096
COCc1cc(NC(=O)NCC(F)(F)F)cc(-c2cnc3cc(-c4ccnc(C(F)(F)F)n4)ccn23)c1 [Compound F-9]	0.0093
CC(C)Oc1cc(NC(=O)NCC(F)(F)F)cc(-c2cnc3cc(-c4nccc(C(C)C)n4)ccn23)c1 [Compound F-29]	0.092
CNCc1cc(NC(=O)NCC(F)(F)F)cc(-c2cnc3cc(-c4nnc(C)o4)ccn23)c1 [Compound F-25]	0.46
